Tested on: 653999-131-R-J2-PDC complex spheroids, growth inhibition;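 further: spheroids exposed to the agents for seven days before the readout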
Assay: Anticancer human tumor 653999-131-R-J2-PDC patient-derived lung adenocarcinoma cell line growth inhibition [RAS]
Conditions: compound 3.16 µM; stronger effect = lower value
Description: RAS pathway inhibitors in Combinations in Complex Spheroids A high-throughput screen of multi-cell type tumor spheroids was designed to identify active combinations of RAS pathway inhibitors and targeted small molecules. Complex spheroids include a stromal component modeled by human endothelial cells (HUVEC) and fibroblasts modeled by human mesenchymal stem cells (MSCs). […] Compounds. […] If the clinical Cmax for an agent had not been determined, the highest concentration tested was 10 microM. […]
quantityMeasured: viability, T/C

Worked examples follow.
molecule: C#Cc1c(F)ccc2cc(O)cc(-c3ncc4c(N5CC6CCC(C5)N6)nc(OCC56CCCN5CC(F)C6)nc4c3F)c12 (configuration not stated)
viability, T/C: 43.8% [middle of 8 runs]
//
molecule: CC(Nc1ccc2c(c1)OCCn1cc(N3C(=O)OCC3C(F)F)nc1-2)C(N)=O (configuration not stated)
viability, T/C: 36.4% [middle of 4 runs]
//
molecule: CC1(O)CCCC1n1c(=O)c(C(F)F)cc2cnc(NC3CCN(S(C)(=O)=O)CC3)nc21 (configuration not stated)
viability, T/C: 73.8% [middle of 4 runs]
//
molecule: CC(C)NCC(C(=O)N1CCN(c2ncnc3c2C(C)CC3O)CC1)c1ccc(Cl)cc1 (configuration not stated)
viability, T/C: 46.6% [middle of 4 runs]
//
molecule: Cc1nc(N2CCC3(CC2)COC(C)C3N)c(CO)nc1Sc1ccnc(N)c1Cl (configuration not stated)
viability, T/C: 85.8% [middle of 4 runs]

Would you mind listing viability, T/C for each of the following molecules?
1. CCC(CC)c1cc(NC2CCC(N)C2)n2nccc2n1 (configuration not stated)
2. NC1c2ccccc2OC12CCN(c1cnc3c(N4CCCc5ncccc54)n[nH]c3n1)CC2 (configuration not stated)

Key:
1: 14% [middle of 4 runs]; 2: 83.9% [middle of 4 runs]
